Catalogue of compounds with associated pEC50
- TARGET OF ASSAY: UniProt:P37288
- Sequence (P37288 whole entry): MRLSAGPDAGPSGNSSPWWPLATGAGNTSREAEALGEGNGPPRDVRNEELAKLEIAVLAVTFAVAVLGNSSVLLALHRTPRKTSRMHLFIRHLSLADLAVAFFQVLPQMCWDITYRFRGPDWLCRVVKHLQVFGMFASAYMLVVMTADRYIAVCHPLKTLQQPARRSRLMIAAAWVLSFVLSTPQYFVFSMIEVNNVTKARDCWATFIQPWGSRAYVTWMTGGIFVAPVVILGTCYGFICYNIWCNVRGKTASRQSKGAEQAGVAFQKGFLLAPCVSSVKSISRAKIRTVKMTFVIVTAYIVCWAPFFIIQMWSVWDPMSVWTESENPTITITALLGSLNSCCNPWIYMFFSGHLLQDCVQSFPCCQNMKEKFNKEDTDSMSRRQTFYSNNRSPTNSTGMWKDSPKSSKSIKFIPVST
- METHOD DESCRIPTION: Calcium flux assay (FLIPR), agonist mode, CHO cells expressing human V1a
- PARTICULARS: CHO cells stably expressing human V1a; calcium flux; read-out: hV1a EC50
- Protocol: Chines Hamster Ovary (CHO) cells were transfected with expression plasmids encoding either the human V1a, the human Oxytocin (OTR) or the humanV2 receptor, the later in combination with the chimeric Gqs5 G protein to redirect the signal to Calcium flux. […] On the afternoon before the assay, cells were plated at a density of 50,000 cells/well into black 96 well plates with clear bottoms to allow cell inspection and fluorescence measurements from the bottom of each well. […]
pEC50: −log10 of the molar value. Positions of bridges follow the written chain, without caps; N, C: chain ends. Non-standard residues stand in square brackets, D forms with d. Residues, ends and D or L forms follow the SMILES beside them. Hyp = O=C(O)[C@@H]1C[C@@H](O)CN1; Sar = CNCC(=O)O

Worked set:
COMPOUND	pEC50
CC[C@H](C)[C@@H]1NC(=O)[C@H](Cc2ccc(O)cc2)NC(=O)CNC(=O)CC[C@@H](C(=O)N2C[C@H](O)C[C@H]2C(=O)N[C@@H](CC(C)C)C(=O)NCC(N)=O)NC(=O)[C@H](CC(N)=O)NC(=O)[C@H](CCC(N)=O)NC1=O [Example 45] (GYIQNE[Hyp]LG-NH2; lactam N-6)	< 4.57
CC[C@H](C)[C@@H]1NC(=O)[C@H](Cc2ccc(O)cc2)NC(=O)CNC(=O)CC[C@@H](C(=O)N2CCC[C@H]2C(=O)N[C@@H](CC(C)C)C(=O)NCC(N)=O)NC(=O)[C@H](CC(N)=O)NC(=O)[C@H](CCC(N)=O)NC1=O [Example 24] (GYIQNEPLG-NH2; lactam N-6)	< 4.57

Recorded pEC50 for CC[C@H](C)[C@@H]1NC(=O)[C@H](Cc2ccc(O)cc2)NC(=O)CNC(=O)CC[C@@H](C(=O)N(C)CC(=O)N[C@@H](CO)C(=O)NCC(N)=O)NC(=O)[C@H](CC(N)=O)NC(=O)[C@H](CCC(N)=O)NC1=O [Example 28] (GYIQNE[Sar]SG-NH2; lactam N-6) , please?
< 5.00
